Protocol text: Extraction of mono- and dibasic acids from 0.1M aqueous solution into toluene or MMA/toluene mixtures
Format: physicochemical
Condition details: Fraction of MMA in MMA/Toluene solvent mixture 0.2; equal volume; in %
The compounds listed here are annotated with their degree of extraction.

Take a look at these entries with their results.
C/C=C/C(=O)O | 49.88
C=C(CC(=O)O)C(=O)O | 0.29
CC(=O)C(=O)O | 0.3
CC(C)(O)C(=O)O [HIB, Hydroxyisobutyric Acid] | 5.14
C=C(C)C(=O)O | 63.01

Moving on to another compound below.
Item under review: C/C(=C\C(=O)O)C(=O)O . Reported degree of extraction?
4.5

* * *

Protocol text: Extraction of mono- and dibasic acids from 0.1M aqueous solution into toluene or MMA/toluene mixtures
Type: physicochemical
Condition details: Fraction of MMA in MMA/Toluene solvent mixture 0.1; equal volume; in %
Protocol: The following experimental conditions were used unless indicated otherwise:— • 0.1M Acids • 1:1 vol:vol aq:solvent • Room Temperature • 1 minutes agitation time; 5 min settling time • Solvent is toluene unless where stated • Analysis by HPLC Monobasic and dibasic acids likely to be present in aqueous solution following partial decomposition of mono and dicarboxylic acids expected to be found from decomposition of dibasic or tribasic acids were compared for their solubility in toluene. […]
Endpoint label: degree of extraction
API note: the answer field is a bare number with no unit suffix.

CC(C)(O)C(=O)O [HIB, Hydroxyisobutyric Acid] | 4.8
C/C(=C\C(=O)O)C(=O)O | 1.72
CC(=O)C(=O)O | 0
C=C(CC(=O)O)C(=O)O | 0
C/C=C/C(=O)O | 46.72

Next up:
Give its degree of extraction value. Item: C=C(C)C(=O)O
58.85

* * *

Protocol text: Extraction of mono- and dibasic acids from 0.1M aqueous solution into toluene or MMA/toluene mixtures
Assay type: physicochemical
Condition details: Fraction of MMA in MMA/Toluene solvent mixture 0.6; equal volume; in %
Endpoint label: degree of extraction
Output spec: single numeric token, no unit.

C/C=C/C(=O)O [CT, Crotonic Acid] | 64.67
C/C(=C\C(=O)O)C(=O)O [MC, Mesaconic Acid] | 27.82
C=C(C)C(=O)O [MAA, Methacrylic Acid] | 76.77
CC(=O)C(=O)O [PY, Pyruvic Acid] | 3.01

What measured degree of extraction goes with CC(C)(O)C(=O)O [HIB, Hydroxyisobutyric Acid] ?
7.32

Using the record for C=C(CC(=O)O)C(=O)O [IC, Itaconic Acid] , report its degree of extraction.
4.34

* * *

Protocol text: Extraction of mono- and dibasic acids from 0.1M aqueous solution into toluene or MMA/toluene mixtures
Format: physicochemical
Condition details: Fraction of MMA in MMA/Toluene solvent mixture 0.7; equal volume; in %
As shown below, each of these compounds has a reported degree of extraction value.

Some solved cases for reference:
CC(C)(O)C(=O)O [HIB, Hydroxyisobutyric Acid] | 19.71
C=C(CC(=O)O)C(=O)O | 6.56
C=C(C)C(=O)O | 79.42
C/C=C/C(=O)O | 68.07
CC(=O)C(=O)O | 4.17

Query compound follows.
Endpoint output: degree of extraction of C/C(=C\C(=O)O)C(=O)O . Value?
38.06

* * *

Overview of reported degree of extraction across a group of molecules:
Protocol text: Extraction of mono- and dibasic acids from 0.1M aqueous solution into toluene or MMA/toluene mixtures
Assay type: physicochemical
Condition details: Fraction of MMA in MMA/Toluene solvent mixture 0; equal volume; in %
Experimental: The following experimental conditions were used unless indicated otherwise:— • 0.1M Acids • 1:1 vol:vol aq:solvent • Room Temperature • 1 minutes agitation time; 5 min settling time • Solvent is toluene unless where stated • Analysis by HPLC Monobasic and dibasic acids likely to be present in aqueous solution following partial decomposition of mono and dicarboxylic acids expected to be found from decomposition of dibasic or tribasic acids were compared for their solubility in toluene. […]
Output spec: single numeric token, no unit.

Please review the following examples before continuing.
C/C(=C\C(=O)O)C(=O)O | 0.64
CC(C)(O)C(=O)O [HIB, Hydroxyisobutyric Acid] | 4.21
CC(=O)C(=O)O | 0
C/C=C/C(=O)O | 40.11
C=C(C)C(=O)O | 54.4

Next item in the queue.
Which value of degree of extraction has been reported for C=C(CC(=O)O)C(=O)O in the records?
0

Data provenance: patent US9890103B2
